The reported numbers originate from patent US9145354B2.

- target.entity: full length NS3/4a (Hepatitis C virus genotype 1b (isolate BK) (HCV), UniProt P26663)
- Sequence (P26663 1027-1657): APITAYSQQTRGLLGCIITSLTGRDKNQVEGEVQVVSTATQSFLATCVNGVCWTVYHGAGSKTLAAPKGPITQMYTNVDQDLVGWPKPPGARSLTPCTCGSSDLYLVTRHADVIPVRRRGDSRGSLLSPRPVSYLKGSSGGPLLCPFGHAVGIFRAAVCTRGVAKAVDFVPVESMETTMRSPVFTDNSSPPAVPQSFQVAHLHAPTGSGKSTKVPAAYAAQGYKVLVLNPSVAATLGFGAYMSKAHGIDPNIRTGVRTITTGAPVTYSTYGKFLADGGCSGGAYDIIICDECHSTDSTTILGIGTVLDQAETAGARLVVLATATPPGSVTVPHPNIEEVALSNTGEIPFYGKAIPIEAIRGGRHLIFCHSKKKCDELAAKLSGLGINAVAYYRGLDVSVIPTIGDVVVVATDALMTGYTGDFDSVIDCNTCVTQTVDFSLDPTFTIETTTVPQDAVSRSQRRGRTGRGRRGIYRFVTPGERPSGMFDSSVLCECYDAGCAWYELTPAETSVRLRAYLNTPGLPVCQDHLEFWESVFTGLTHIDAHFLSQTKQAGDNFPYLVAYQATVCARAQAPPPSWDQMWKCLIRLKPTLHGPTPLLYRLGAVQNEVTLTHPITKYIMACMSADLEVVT
- protocol.description: NS3 Protease Assay (Example A), FRET-based
- Format: biochemical
- assay.conditions: read-out: IC50 against the protease activity of the full length NS3/4a
recorded.endpoint: IC50

C[C@H](CC(N)=O)N[C@@H](c1ccc(Cl)c(C(=O)c2ccc(C#N)cc2)c1F)C1CC1    < 1000 nM
CC[C@@H](N[C@@H](C)CC(N)=O)c1ccc(Cl)c(C(=O)c2cnc(N)cn2)c1F    < 1000 nM
CC[C@@H](N[C@H](C)CC(N)=O)c1ccc(OC)c(C(=O)c2cccc(F)c2)c1F    1000 to 5000 nM
CC[C@H](CC(N)=O)N[C@H](CC)c1ccc(Cl)c(C(=O)c2ccc(N)nc2)c1F    1000 to 5000 nM
CCC(NC1CCCC1C(N)=O)c1ccc(Cl)c(C(=O)c2ccc(N)nc2)c1F (single isomer, unassigned) [Example 125]    < 1000 nM
CC[C@@H](N[C@H](C)CC(N)=O)c1ccc(Cl)c(C(=O)c2cccc(C#N)c2)c1F    1000 to 5000 nM
CC[C@@H](N)c1ccc(OC)c(C(=O)c2cccc(F)c2)c1F    1000 to 5000 nM
CC[C@@H](N[C@H](C)c1cnc[nH]1)c1ccc(Cl)c(C(=O)c2cccnc2)c1F    1000 to 5000 nM
[2H]C([2H])([2H])C([2H])([2H])[C@@H](N[C@@H](C)CC(N)=O)c1ccc(Cl)c(C(=O)c2ccc(N)c(C)c2)c1F    < 1000 nM
COc1ccc([C@H](N)C2CC2)c(F)c1C(=O)c1ccc(F)cc1    1000 to 5000 nM
COc1ccc([C@H](N[C@H](C)CC(N)=O)C2CC2)c(F)c1C(=O)c1cccc(F)c1    1000 to 5000 nM
CC[C@@H](N[C@@H](C)CC(N)=O)c1ccc(Cl)c(C(=O)c2ccc3c(c2)OCC(=O)N3)c1F    < 1000 nM
CC[C@H](NCCO)c1ccc(Cl)c(C(=O)c2ccc(N)nc2)c1F    < 1000 nM
[2H]C([2H])([2H])C([2H])([2H])[C@@H](N[C@@H](C)CC(N)=O)c1ccc(Cl)c(C(=O)c2ccc(N)c(Cl)c2)c1F    < 1000 nM
CC[C@@H](N[C@H](C)CC(N)=O)c1ccc(Cl)c(C(=O)c2ccc(N)cn2)c1F    1000 to 5000 nM
